# experimental.system: Histidine--tRNA ligase (Leishmania infantum) (UniProt A4I591)
# Sequence (A4I591 as listed by the source): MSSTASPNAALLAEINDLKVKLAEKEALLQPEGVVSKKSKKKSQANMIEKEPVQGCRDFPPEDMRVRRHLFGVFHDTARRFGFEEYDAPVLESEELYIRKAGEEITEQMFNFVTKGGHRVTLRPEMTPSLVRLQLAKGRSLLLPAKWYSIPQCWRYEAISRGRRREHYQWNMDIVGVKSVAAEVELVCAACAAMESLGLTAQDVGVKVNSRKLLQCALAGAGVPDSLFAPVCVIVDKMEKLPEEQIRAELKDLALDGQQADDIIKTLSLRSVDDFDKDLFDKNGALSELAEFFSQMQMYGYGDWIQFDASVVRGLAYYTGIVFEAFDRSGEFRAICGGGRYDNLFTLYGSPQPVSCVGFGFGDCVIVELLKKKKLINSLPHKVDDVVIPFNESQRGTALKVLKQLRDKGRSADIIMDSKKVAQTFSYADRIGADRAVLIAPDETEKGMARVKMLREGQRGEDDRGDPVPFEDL
# protocol: Leishmania infantum Histidine tRNA synthetase (LdHisRS)
# Type: functional
# Design: scale not given: in the data most compounds retested in dose-response had high values
# condition.description: 30 µM
The whole screen tested about 69,000 compounds, of which about 420 (0.61%) showed an effect of 50% or more. The entries come from a sample that favours strong results as a whole.
readout.type: Percent Effect

- smiles.entry: "COCC(=O)N[C@H]1C[C@H]2C(=O)NC[C@@H](CCC(=O)NC3CC3)N2C1"
  experimental.system: "Histidine--tRNA ligase (Leishmania infantum) (UniProt A4I591)"
  result: "5.56%"
- smiles.entry: "O=C1[C@@H]2CCN(Cc3ccoc3)C[C@@H]2OCCN1c1ccccc1"
  experimental.system: "Histidine--tRNA ligase (Leishmania infantum) (UniProt A4I591)"
  result: "9.49%"
- smiles.entry: "Cc1noc([C@H]2C[C@H]3OCC[C@H]3N(S(=O)(=O)C3CC3)C2)n1"
  experimental.system: "Histidine--tRNA ligase (Leishmania infantum) (UniProt A4I591)"
  result: "13.3%"

Values compiled from ChEMBL document CHEMBL3988442.
